targetDesc: Relipidated TF (Tissue Factor) (UniProt P13726 33-295, limits assumed)
testProtocol: cell-based or functional assay
observationType: ttPeak [min], Ab 10 nM (min)

- 25A (antibody, human IgG1, V domains shown) VH: QVQLVQSGAEVKKPGASVKVSCKASGYTFDVYGISWVRQAPGQGLEWMGWIAPYNGNTNYAQKLQGRVTMTTDTSTSTAYMELRSLRSDDTAVYYCARDAGTYSPFGYGMDVWGQGTTVTVSS VL: DIQMTQSPSTLSASVGDRVTITCRASQSISSWLAWYQQKPGKAPKLLIYKASSLESGVPSRFSGSGSGTEFTLTISSLQPDDFATYYCQQFQSLPPFTFGGGTKVEIK: 8.2
- 39A (antibody, human IgG1, V domains shown) VH: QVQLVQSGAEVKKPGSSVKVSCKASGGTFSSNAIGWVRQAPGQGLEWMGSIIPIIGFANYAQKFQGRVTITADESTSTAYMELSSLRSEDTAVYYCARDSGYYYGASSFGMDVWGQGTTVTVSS VL: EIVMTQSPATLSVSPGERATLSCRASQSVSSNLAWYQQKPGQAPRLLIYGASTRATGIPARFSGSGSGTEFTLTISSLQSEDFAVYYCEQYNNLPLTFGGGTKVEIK: 18.6
- TF-011 (antibody, V domains shown) VH: EVQLLESGGGLVQPGGSLRLSCAASGFTFSNYAMSWVRQAPGKGLEWVSSISGSGDYTYYTDSVKGRFTISRDNSKNTLYLQMNSLRAEDTAVYYCARSPWGYYLDSWGQGTLVTVSS VL: DIQMTQSPPSLSASAGDRVTITCRASQGISSRLAWYQQKPEKAPKSLIYAASSLQSGVPSRFSGSGSGTDFTLTISSLQPEDFATYYCQQYNSYPYTFGQGTKLEIK: 14.7
- 5G9 (humanized TF8-5G9, CNTO 860) (antibody, V domains shown) VH: QVQLVESGGGVVQPGRSLRLSCKASGFNIKDYYMHWVRQAPGKGLEWIGLIDPENGNTIYDPKFQGRFTISADNSKNTLFLQMDSLRPEDTAVYYCARDNSYYFDYWGQGTPVTVSS VL: DIQMTQSPSSLSASVGDRVTITCKASQDIRKYLNWYQQKPGKAPKLLIYYATSLADGVPSRFSGSGSGTDYTFTISSLQPEDIATYYCLQHGESPYTFGQGTKLEIT: 18.6
